Target: UniProt Q8N371
Sequence (Q8N371 whole entry): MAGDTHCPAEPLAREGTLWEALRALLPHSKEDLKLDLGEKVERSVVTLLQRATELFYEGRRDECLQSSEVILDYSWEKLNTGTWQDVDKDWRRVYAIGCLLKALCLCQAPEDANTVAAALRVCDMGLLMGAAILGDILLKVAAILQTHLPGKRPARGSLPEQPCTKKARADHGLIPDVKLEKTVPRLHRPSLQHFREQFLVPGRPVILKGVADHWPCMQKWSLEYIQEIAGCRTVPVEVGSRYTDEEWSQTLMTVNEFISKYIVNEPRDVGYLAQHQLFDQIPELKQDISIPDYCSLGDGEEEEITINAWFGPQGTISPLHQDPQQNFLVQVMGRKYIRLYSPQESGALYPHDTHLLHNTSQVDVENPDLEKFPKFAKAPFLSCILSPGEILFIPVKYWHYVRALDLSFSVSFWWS
Experiment: SPE-MS JMJD5 inhibition assay (hydroxylation of RPS6 128–148 peptide)
Format: biochemical
Conditions: Supporting Table S1; JMJD5 […], 2OG 2.0 μM, RPS6 128-148 2.0 μM, pH 7.5, 20 °C; n = 3, mean ± SD; read-out: IC50 JMJD5
MEASURE NAME: IC50

>>> result("COC(=O)c1ccnc(C(=O)OC)c1 [dimethyl 2,4-PDCA, reference compound]")
"> 50 µM"
>>> result("O=C(O)c1ccnc(C(=O)O)c1Nc1ccccc1")
"> 50 µM"
>>> result("O=C(O)c1ccccc1Nc1c(C(=O)O)ccnc1C(=O)O")
"> 50 µM"
>>> result("O=C(O)c1ccnc(C(=O)O)c1Nc1ccc([N+](=O)[O-])cc1")
"> 50 µM"
>>> result("Cc1ccccc1Nc1c(C(=O)O)ccnc1C(=O)O")
"> 50 µM"
>>> result("O=C(O)c1ccc(Nc2c(C(=O)O)ccnc2C(=O)O)cc1")
"> 50 µM"
>>> result("CSc1ccccc1Nc1c(C(=O)O)ccnc1C(=O)O")
"41.5 µM"
>>> result("O=C(O)c1ccncc1NCCc1ccc(Cl)cc1")
"> 50 µM"
